Taken from patent US9550754B2.

molecular target: human GlyT1c transporter (Homo sapiens, UniProt P48067); construct: the line hGlyT1c_5_CHO is named only for the uptake assay; assay: Radioligand binding assay using recombinant CHO cell membranes expressing human GlyT1; conditions: apparent Ki, read-out: Kiapp (Inhibition of GlyT1 radioligand binding)
Sequence (P48067 whole entry): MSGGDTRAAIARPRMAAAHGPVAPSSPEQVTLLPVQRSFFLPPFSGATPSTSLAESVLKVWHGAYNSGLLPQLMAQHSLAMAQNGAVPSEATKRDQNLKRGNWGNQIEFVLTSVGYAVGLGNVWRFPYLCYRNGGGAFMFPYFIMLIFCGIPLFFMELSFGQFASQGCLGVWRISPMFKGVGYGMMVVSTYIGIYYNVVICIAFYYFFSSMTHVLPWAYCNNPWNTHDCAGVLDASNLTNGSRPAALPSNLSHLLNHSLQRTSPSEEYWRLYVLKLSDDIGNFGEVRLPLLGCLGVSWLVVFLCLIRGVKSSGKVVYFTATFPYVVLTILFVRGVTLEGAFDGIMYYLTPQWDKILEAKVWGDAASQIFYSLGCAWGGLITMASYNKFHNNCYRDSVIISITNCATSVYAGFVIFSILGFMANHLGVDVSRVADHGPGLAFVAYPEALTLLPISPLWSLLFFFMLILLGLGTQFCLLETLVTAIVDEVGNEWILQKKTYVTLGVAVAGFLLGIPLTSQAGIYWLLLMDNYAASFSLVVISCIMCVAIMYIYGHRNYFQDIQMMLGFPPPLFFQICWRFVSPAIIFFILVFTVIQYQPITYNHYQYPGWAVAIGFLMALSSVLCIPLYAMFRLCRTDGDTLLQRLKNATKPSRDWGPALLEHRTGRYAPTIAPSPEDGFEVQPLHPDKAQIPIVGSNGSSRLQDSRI
recorded_endpoint: Ki

Known results for compounds:
compound	measured_target	Ki
Cn1cnc(S(=O)(=O)N2CC(c3ccccc3)C(c3ccc(Cl)cc3)=N2)c1 (single isomer, unassigned) [Example 16b]	human GlyT1c transporter (Homo sapiens, UniProt P48067)	≤ 10 µM
Cn1cc(S(=O)(=O)N2CC(c3ccc(F)cc3)C(c3cccc(C(F)(F)F)c3)=N2)nn1 (stereo not shown)	human GlyT1c transporter (Homo sapiens, UniProt P48067)	≤ 10 µM
Cn1cnc(S(=O)(=O)N2CC(c3ccccc3)C(c3ccccn3)=N2)c1 (stereo not shown)	human GlyT1c transporter (Homo sapiens, UniProt P48067)	≤ 10 µM

IN: # assay system human GlyT1c transporter (Homo sapiens, UniProt P48067): give Ki of Cn1cc(S(=O)(=O)N2CC(c3cccc(C#N)c3)C(c3ccccc3)=N2)nn1 (stereo not shown)
OUT: ≤ 1 µM

* * *

target: human GlyT1c transporter (Homo sapiens, UniProt P48067); construct: the line hGlyT1c_5_CHO is named only for the uptake assay; experiment: Radioligand binding assay using recombinant CHO cell membranes expressing human GlyT1; conditions: apparent Ki, read-out: Kiapp (Inhibition of GlyT1 radioligand binding)
Recorded Ki values for a group of compounds are listed next.

Known results for compounds:
compound	Ki
Cn1cc(S(=O)(=O)N2CC(c3ccc(F)cc3)C(c3ccccc3)=N2)cn1 (centres unmarked) [Example 9]	≥ 10 µM
Cn1cnc(S(=O)(=O)N2CC(c3ccc(F)cc3)C(c3cccc(Cl)c3)=N2)c1 (centres unmarked) [Example 5]	≤ 1 µM
Cn1cnc(S(=O)(=O)N2CC(c3cccc(Cl)c3)C(c3ccccc3)=N2)c1 (centres unmarked) [Example 30]	≤ 0.1 µM
Cn1cc(S(=O)(=O)N2CC(c3ccccc3)C(c3cccc(OC(F)(F)F)c3)=N2)nn1 (centres unmarked) [Example 15]	≤ 0.1 µM

IN: Hello, please tell me recorded Ki for this one: Cn1cc(S(=O)(=O)N2CC(c3ccccc3)C(c3cc(C(F)(F)F)ccn3)=N2)nn1 (centres unmarked) [Example 23]
OUT: ≤ 10 µM

IN: Hello, please tell me recorded Ki for this one: Cn1cc(S(=O)(=O)N2CC(c3ccccc3)C(c3ccc(Cl)cc3)=N2)nn1 (centres unmarked) [Example 12]
OUT: ≤ 0.01 µM

IN: Hello, please tell me recorded Ki for this one: Cn1cnc(S(=O)(=O)N2CC(c3ccccc3)C(c3cc(C(F)(F)F)ccn3)=N2)c1 (centres unmarked) [Example 21]
OUT: ≤ 10 µM

IN: Hello, please tell me recorded Ki for this one: Cn1cc(S(=O)(=O)N2CC(c3ccccc3)C(c3ccc(Cl)cc3)=N2)cn1 (centres unmarked) [Example 11]
OUT: ≤ 10 µM

* * *

target: human GlyT1c transporter (Homo sapiens, UniProt P48067); construct: the line hGlyT1c_5_CHO is named only for the uptake assay; experiment: Radioligand binding assay using recombinant CHO cell membranes expressing human GlyT1; conditions: apparent Ki, read-out: Kiapp (Inhibition of GlyT1 radioligand binding)
recorded_endpoint: Ki

Known results for compounds:
compound	recorded_endpoint	result
Cn1cc(S(=O)(=O)N2CC(c3ccccc3)C(c3ccccn3)=N2)cn1 (stereo not shown)	Ki	≥ 10 µM
Cn1cnc(S(=O)(=O)N2CC(c3ccc(F)cc3)C(c3ccccc3)=N2)c1 (stereo not shown)	Ki	≤ 1 µM
Cn1cnc(S(=O)(=O)N2CC(c3cccc(C#N)c3)C(c3ccccc3)=N2)c1 (stereo not shown)	Ki	≤ 10 µM

IN: Hello, please tell me recorded Ki for this one: Cn1cnc(S(=O)(=O)N2CC(c3ccccc3)C(c3ccc(Cl)cc3)=N2)c1 (single isomer, unassigned) [Example 16a]
OUT: ≤ 0.01 µM

IN: Hello, please tell me recorded Ki for this one: Cn1cc(S(=O)(=O)N2CC(c3ccccc3)C(c3cc(C(F)(F)F)ccn3)=N2)cn1 (stereo not shown)
OUT: ≤ 10 µM

IN: Hello, please tell me recorded Ki for this one: Cn1cc(S(=O)(=O)N2CC(c3ccc(F)cc3)C(c3cccc(C(F)(F)F)c3)=N2)cn1 (stereo not shown)
OUT: ≤ 10 µM

IN: Hello, please tell me recorded Ki for this one: Cn1cc(S(=O)(=O)N2CC(c3cccc(Cl)c3)C(c3ccccc3)=N2)cn1 (stereo not shown)
OUT: ≤ 10 µM

* * *

Recorded pKi values for a group of molecules are listed next.
biological target: human GlyT1c transporter (Homo sapiens, UniProt P48067); construct: the line hGlyT1c_5_CHO is named only for the uptake assay; test: Radioligand binding assay using recombinant CHO cell membranes expressing human GlyT1; conditions: apparent Ki, read-out: Kiapp (Inhibition of GlyT1 radioligand binding)
pKi: −log10 of the molar value.

molecule	recorded_endpoint	result
Cn1cc(S(=O)(=O)N2CC(c3ccc(Cl)cc3)C(c3ccccc3)=N2)cn1 (stereo not shown)	pKi	≥ 5.00
CC(C)CC1=NN(S(=O)(=O)c2cn(C)cn2)CC1c1ccccc1 (stereo not shown)	pKi	≥ 5.00
Cn1cnc(S(=O)(=O)N2CC(c3ccccc3)C(c3cccc(OC(F)(F)F)c3)=N2)c1 (stereo not shown)	pKi	≥ 7.00

IN: Hello, please tell me recorded pKi for this one: Cn1cc(S(=O)(=O)N2CC(c3ccc(Cl)cc3)C(c3ccccc3)=N2)nn1 (stereo not shown)
OUT: ≥ 6.00

* * *

molecular target: human GlyT1c transporter (Homo sapiens, UniProt P48067); construct: the line hGlyT1c_5_CHO is named only for the uptake assay; assay: Radioligand binding assay using recombinant CHO cell membranes expressing human GlyT1; settings: apparent Ki, read-out: Kiapp (Inhibition of GlyT1 radioligand binding)
pKi: −log10 of the molar value.
recorded_endpoint: pKi

molecule	pKi
Cn1cc(S(=O)(=O)N2CC(c3ccc(F)cc3)C(c3ccccc3)=N2)nn1 (centres unmarked) [Example 3]	≥ 7.00
Cn1cc(S(=O)(=O)N2CC(c3ccc(F)cc3)C(c3cccc(Cl)c3)=N2)nn1 (centres unmarked) [Example 6]	≥ 7.00
Cn1cc(S(=O)(=O)N2CC(c3ccccc3)C(c3ccccn3)=N2)nn1 (centres unmarked) [Example 20]	≥ 5.00
Cn1cnc(S(=O)(=O)N2CC(c3ccccc3)C(c3ccc(Cl)cc3)=N2)c1 (centres unmarked) [Example 2]	≥ 7.00
Cn1cnc(S(=O)(=O)N2CC(c3ccc(F)cc3)C(c3cccc(C(F)(F)F)c3)=N2)c1 (centres unmarked) [Example 8]	≥ 7.00

IN: Hello, please tell me recorded pKi for this one: Cn1cnc(S(=O)(=O)N2CC(c3ccc(Cl)cc3)C(c3ccccc3)=N2)c1 (centres unmarked) [Example 24]
OUT: ≥ 6.00

IN: Hello, please tell me recorded pKi for this one: Cn1cc(S(=O)(=O)N2CC(c3ccc(F)cc3)C(c3cccc(Cl)c3)=N2)cn1 (centres unmarked) [Example 7]
OUT: ≥ 8.00

IN: Hello, please tell me recorded pKi for this one: Cn1cc(S(=O)(=O)N2CC(c3ccccc3)C(c3cccc(OC(F)(F)F)c3)=N2)cn1 (centres unmarked) [Example 14]
OUT: ≥ 5.00
